So I've got AC50 readings for Growth hormone secretagogue receptor type 1 (Homo sapiens, UniProt Q92847), take a look.

Sample records with AC50:
compound	AC50
CC(C(=O)O)c1ccc2c(c1)[nH]c1ccc(Cl)cc12 (centres undefined)	> 30 µM
CN(C)CCC[C@@]1(c2ccc(F)cc2)OCc2cc(C#N)ccc21	> 30 µM
COc1cc2nc(N3CCN(C(=O)C4CCCO4)CC3)nc(N)c2cc1OC (centres undefined)	> 30 µM
CC(C)N(CCC(C(N)=O)(c1ccccc1)c1ccccn1)C(C)C (centres undefined) [DISOPYRAMIDE]	> 30 µM
CN(C)CCc1c[nH]c2ccc(Cn3cncn3)cc12	> 30 µM
CCC(COC(=O)c1cc(OC)c(OC)c(OC)c1)(c1ccccc1)N(C)C (centres undefined)	> 30 µM
CC1(C)S[C@@H]2[C@H](NC(=O)[C@H](N)c3ccccc3)C(=O)N2[C@H]1C(=O)OCOC(=O)[C@@H]1N2C(=O)C[C@H]2S(=O)(=O)C1(C)C	> 30 µM
CCCCC1C(=O)N(c2ccccc2)N(c2ccccc2)C1=O	> 30 µM

Kindly give each listed record's AC50.
1. COc1cc2nccc(Oc3ccc(NC(=O)C4(C(=O)Nc5ccc(F)cc5)CC4)cc3)c2cc1OC [CABOZANTINIB]
2. C[C@]12C=CC(=O)N[C@@H]1CC[C@@H]1[C@@H]2CC[C@]2(C)[C@@H](C(=O)Nc3cc(C(F)(F)F)ccc3C(F)(F)F)CC[C@@H]12 [DUTASTERIDE]
3. CC12CC3CC(C)(C1)CC(N)(C3)C2 [MEMANTINE]
4. Cc1ncc2n1-c1ccc(Cl)cc1C(c1ccccc1F)=NC2
5. O=C(O)Cc1cc(I)c(Oc2ccc(O)c(I)c2)c(I)c1
6. C/N=C(\NC)NCc1ccccc1
7. Nc1ncn([C@H]2C[C@H](O)[C@@H](CO)O2)c(=O)n1
8. CCN(CC)CCNC(=O)c1c(C)[nH]c(/C=C2\C(=O)Nc3ccc(F)cc32)c1C

> 30 µM
> 10 µM
> 30 µM
> 30 µM
> 30 µM
> 30 µM
> 30 µM
7.2 µM

Kindly give each listed record's AC50.
1. COc1cc(N)c(Cl)cc1C(=O)NC1CCN(Cc2ccccc2)CC1 [CLEBOPRIDE]
2. CN1CCN(C2=Nc3ccccc3Oc3ccc(Cl)cc32)CC1
3. COc1ccc(CC2c3cc(OC)c(OC)cc3CC[N+]2(C)CCC(=O)OCCCCCOC(=O)CC[N+]2(C)CCc3cc(OC)c(OC)cc3C2Cc2ccc(OC)c(OC)c2)cc1OC (centres undefined)
4. O=C(O)c1cn(C2CC2)c2cc(N3CCNCC3)c(F)cc2c1=O
5. O=C1C(CC[S+]([O-])c2ccccc2)C(=O)N(c2ccccc2)N1c1ccccc1 (centres undefined)
6. C[C@]12CC[C@@H]3c4ccc(O)cc4C[C@@H](CCCCCCCCC[S+]([O-])CCCC(F)(F)C(F)(F)F)[C@H]3[C@@H]1CC[C@@H]2O (some centres undefined)

["> 30 µM", "> 30 µM", "11.2 µM", "> 30 µM", "> 10 µM", "> 30 µM"]

Kindly give each listed record's AC50.
1. Oc1ccc2c(c1)CC[C@H](c1ccccc1)[C@@H]2c1ccc(OCCN2CCCC2)cc1
2. O=C(O)c1ccccc1Nc1cc(Cl)ccc1C(=O)O

1. 5.2 µM
2. > 30 µM

Kindly give each listed record's AC50.
1. Cc1noc(NS(=O)(=O)c2ccc(N)cc2)c1C
2. CC(C)[C@H](N)C(=O)OCC(CO)OCn1cnc2c(=O)nc(N)[nH]c21 (some centres undefined)

["> 10 µM", "> 30 µM"]
